- study-target: human Nav1.7 (Homo sapiens (Human), UniProt Q15858)
- Sequence (Q15858 whole entry): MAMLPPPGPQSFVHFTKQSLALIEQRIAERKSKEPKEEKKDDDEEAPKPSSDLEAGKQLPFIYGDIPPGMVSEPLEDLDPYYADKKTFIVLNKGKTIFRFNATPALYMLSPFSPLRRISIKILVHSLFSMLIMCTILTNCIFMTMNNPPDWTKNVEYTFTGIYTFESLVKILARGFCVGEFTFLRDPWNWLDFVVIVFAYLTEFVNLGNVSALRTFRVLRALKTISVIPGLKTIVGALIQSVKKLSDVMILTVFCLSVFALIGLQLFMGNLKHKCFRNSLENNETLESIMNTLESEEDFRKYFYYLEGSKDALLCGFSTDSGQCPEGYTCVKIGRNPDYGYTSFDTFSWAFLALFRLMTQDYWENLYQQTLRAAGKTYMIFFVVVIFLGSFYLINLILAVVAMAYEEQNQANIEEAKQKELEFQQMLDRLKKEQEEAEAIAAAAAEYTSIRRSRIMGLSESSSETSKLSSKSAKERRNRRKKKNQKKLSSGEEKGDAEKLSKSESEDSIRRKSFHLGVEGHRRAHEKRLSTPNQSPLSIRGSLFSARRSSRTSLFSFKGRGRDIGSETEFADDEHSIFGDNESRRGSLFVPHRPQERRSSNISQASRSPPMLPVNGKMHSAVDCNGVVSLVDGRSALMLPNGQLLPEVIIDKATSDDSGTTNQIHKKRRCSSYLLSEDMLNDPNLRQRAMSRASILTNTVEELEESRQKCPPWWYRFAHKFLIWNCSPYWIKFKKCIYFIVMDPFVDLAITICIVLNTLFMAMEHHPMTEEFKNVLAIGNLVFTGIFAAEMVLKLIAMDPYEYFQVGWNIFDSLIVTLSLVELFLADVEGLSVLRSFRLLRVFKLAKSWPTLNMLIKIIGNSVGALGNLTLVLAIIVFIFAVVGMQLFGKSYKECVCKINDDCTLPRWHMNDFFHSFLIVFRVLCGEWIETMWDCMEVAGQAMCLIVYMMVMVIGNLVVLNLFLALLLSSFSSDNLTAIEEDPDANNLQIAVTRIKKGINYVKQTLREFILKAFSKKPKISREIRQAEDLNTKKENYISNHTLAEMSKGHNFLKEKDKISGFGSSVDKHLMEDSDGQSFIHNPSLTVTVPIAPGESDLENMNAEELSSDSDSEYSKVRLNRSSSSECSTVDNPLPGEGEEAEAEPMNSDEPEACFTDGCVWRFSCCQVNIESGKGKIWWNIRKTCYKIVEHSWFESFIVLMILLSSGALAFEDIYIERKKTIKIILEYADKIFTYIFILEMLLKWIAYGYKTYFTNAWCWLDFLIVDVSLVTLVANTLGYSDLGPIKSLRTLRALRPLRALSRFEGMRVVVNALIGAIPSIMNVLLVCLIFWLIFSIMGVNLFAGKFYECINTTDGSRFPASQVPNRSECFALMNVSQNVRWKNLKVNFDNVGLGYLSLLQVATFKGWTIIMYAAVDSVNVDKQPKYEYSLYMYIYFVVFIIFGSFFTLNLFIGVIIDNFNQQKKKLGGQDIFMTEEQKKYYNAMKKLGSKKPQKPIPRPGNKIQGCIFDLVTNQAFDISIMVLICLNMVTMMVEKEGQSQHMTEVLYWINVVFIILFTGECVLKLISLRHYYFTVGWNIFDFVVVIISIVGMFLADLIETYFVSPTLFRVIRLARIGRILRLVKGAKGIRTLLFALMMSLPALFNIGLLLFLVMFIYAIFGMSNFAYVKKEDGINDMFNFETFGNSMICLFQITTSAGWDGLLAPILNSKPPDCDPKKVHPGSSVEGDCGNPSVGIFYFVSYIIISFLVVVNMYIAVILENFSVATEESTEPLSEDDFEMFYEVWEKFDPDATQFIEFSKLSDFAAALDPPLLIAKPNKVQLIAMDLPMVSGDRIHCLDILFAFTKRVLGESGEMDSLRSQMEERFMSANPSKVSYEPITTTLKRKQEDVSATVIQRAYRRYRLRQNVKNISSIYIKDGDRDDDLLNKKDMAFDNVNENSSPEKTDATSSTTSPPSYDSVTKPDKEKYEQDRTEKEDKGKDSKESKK
- assay-summary: Nav 1.7 in vitro PatchXpress (PX) assay
- Type: cell-based
value-kind: IC50 (nM)

[
  {
    "molecule": "Cc1cc(Cl)ccc1Oc1ncc(-c2cc(F)c(C(=O)NS(C)(=O)=O)cc2C)cc1Cl [Example 620]",
    "assay-value": 76.1
  }
]

a. CS(=O)(=O)NC(=O)c1ccc(-c2cnc(Oc3cc(Cl)cc(Cl)c3)c(Cl)c2)c(OC(F)F)c1 [Example 461]
b. COc1cc(C(=O)NS(C)(=O)=O)c(F)cc1-c1cnc(Oc2ccc(F)c(F)c2F)c(Cl)c1 [Example 701]
Field: lower IC50 | Options: a / b # respond with the chosen item's label
a
(a: 33.7 nM, b: 70.6 nM)

Entry source: patent US9663508B2
